# STUDY_TARGET: human His-PIM1 [2-313] (Homo sapiens, UniProt P11309)
# Construct: purified human His-PIM1 [2-313] enzyme; His (N); purchased University of Dundee, Scotland; host or cells: baculovirus system
# Sequence (P11309 2-313): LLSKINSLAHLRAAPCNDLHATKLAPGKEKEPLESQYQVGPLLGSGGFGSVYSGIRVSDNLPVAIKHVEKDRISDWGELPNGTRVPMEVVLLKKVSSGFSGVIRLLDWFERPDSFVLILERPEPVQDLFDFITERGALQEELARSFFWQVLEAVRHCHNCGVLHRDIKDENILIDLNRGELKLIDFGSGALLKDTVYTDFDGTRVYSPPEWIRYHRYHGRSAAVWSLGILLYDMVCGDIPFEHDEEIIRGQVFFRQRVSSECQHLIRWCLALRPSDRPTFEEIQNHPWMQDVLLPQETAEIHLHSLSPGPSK
# ASSAY_SUMMARY: PIM1 in-vitro mobility shift assay (Caliper LC3000, FL-Ahx-Bad phosphorylation)
# Assay type: biochemical
# ASSAY_CONTEXT: 1.5 h; percent inhibition at 0.3 uM compound; read-out: PIM1 % I at 0.3 uM
ASSAY_READOUT: inhibition at 0.3 µM

Known results for compounds:
COMPOUND: NCCCN[C@@H]1CCCN(c2c(Cl)cccc2/C=C2\SC(=O)NC2=O)C1 [Example 129B]
ASSAY_READOUT: inhibition at 0.3 µM
VALUE: > 95%
--
COMPOUND: O=C1NC(=O)/C(=C/c2cc(C(F)(F)F)cc(Cl)c2N2CCN(Cc3ccccc3Cl)CC2)S1 [Example 18]
ASSAY_READOUT: inhibition at 0.3 µM
VALUE: < 5%

For the next question, use this compound.
QUERY: Param item = NC1CCN(c2c(Cl)cc(C(F)(F)F)cc2/C=C2\SC(=O)NC2=O)CC1 [Example 3] ; retrieve measured inhibition at 0.3 µM.
RESULT: > 95%

---

I'd appreciate it if you could supply inhibition at 0.3 µM values for the items below.
# STUDY_TARGET: human His-PIM2 [23-299] (Homo sapiens, UniProt Q9P1W9)
# Construct: purified human His-PIM2 [23-299] enzyme; His (N); host or cells: E. coli
# Sequence (Q9P1W9 23-299): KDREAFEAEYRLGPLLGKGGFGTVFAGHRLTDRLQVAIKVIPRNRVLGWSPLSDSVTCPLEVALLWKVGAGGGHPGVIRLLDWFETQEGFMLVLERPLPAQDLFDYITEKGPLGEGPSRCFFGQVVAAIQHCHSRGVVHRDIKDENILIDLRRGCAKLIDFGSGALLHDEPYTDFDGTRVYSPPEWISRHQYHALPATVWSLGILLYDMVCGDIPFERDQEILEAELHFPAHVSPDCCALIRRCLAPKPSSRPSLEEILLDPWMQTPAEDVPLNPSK
# ASSAY_SUMMARY: PIM2 in-vitro mobility shift assay (Caliper LC3000, FL-Ahx-Bad phosphorylation)
# Assay type: biochemical
# ASSAY_CONTEXT: 1.5 h; percent inhibition at 0.3 uM compound; read-out: PIM2 % I at 0.3 uM
One number for each entry, in %.

SAMPLE_SMILES: COc1ccc(N2CCC(N(C)C)CC2)c(/C=C2\SC(=O)NC2=O)c1
VALUE_UNITS: %
inhibition at 0.3 µM: 46.7
//
SAMPLE_SMILES: O=C(Cc1cccnc1)N[C@H]1CCN(c2c(Cl)cccc2/C=C2\SC(=O)NC2=O)C1
VALUE_UNITS: %
inhibition at 0.3 µM: 15.1
//
SAMPLE_SMILES: O=C1NC(=O)/C(=C/c2cc(C(F)(F)F)cc(Cl)c2N2CCC(N3CCCCC3)CC2)S1
VALUE_UNITS: %
inhibition at 0.3 µM: 23.3

For the next question, use this molecule.
QUERY: Param item = O=C1NC(=O)/C(=C/c2n[nH]c3ccccc23)S1 ; retrieve measured inhibition at 0.3 µM.
RESULT: 9

---

# STUDY_TARGET: human His-PIM1 [2-313] (Homo sapiens, UniProt P11309)
# Construct: purified human His-PIM1 [2-313] enzyme; His (N); purchased University of Dundee, Scotland; host or cells: baculovirus system
# ASSAY_SUMMARY: PIM1 in-vitro mobility shift assay (Caliper LC3000, FL-Ahx-Bad phosphorylation)
# Format: biochemical
# ASSAY_CONTEXT: 1.5 h; percent inhibition at 0.3 uM compound; read-out: PIM1 % I at 0.3 uM
Counter-ions that a name gives are not always drawn.
I'd appreciate it if you could supply inhibition at 0.3 µM values for the items below.

Known results for compounds:
COMPOUND: N[C@H]1CCN(c2c(Cl)cc(C(F)(F)F)cc2/C=C2\SC(=O)NC2=O)C1 [Example 5B]
VALUE: > 95%
--
COMPOUND: O=C1NC(=O)/C(=C/c2cc(C(F)(F)F)cc(Cl)c2N2CCC(N3CCCC3)CC2)S1 [Example 10]
VALUE: > 95%
--
COMPOUND: CN(C)C1CCN(c2ccccc2/C=C2\SC(=O)NC2=O)C1 (centres unmarked) [Example 48]
VALUE: 84.4%
--
COMPOUND: CN(C)[C@H]1CCN(c2ccc(Br)cc2C=C2SC(=O)NC2=O)C1 [Example 84M]
VALUE: > 95%
--
COMPOUND: N[C@@H]1CCCN(c2c(Cl)cc(C(F)(F)F)cc2/C=C2\SC(=O)NC2=O)C1 [Example 2]
VALUE: > 95%

Quick one: give me inhibition at 0.3 µM for each item below, same order please.
1. COc1cccc(/C=C2\SC(=O)NC2=O)c1N1CCNCC1 [Example 97, hydrochloride]
2. O=C1NC(=O)/C(=C/c2ccncc2)S1 [Example 72]

RESULT:
1: > 95%; 2: < 5%
